Measured values drawn from ChEMBL document CHEMBL4715687 for this set.

For each record, write down the corresponding IC50.
Please respond with the number in µM and leave the unit unwritten.

Incoming: Give IC50 (Choline trimethylamine-lyase (Desulfovibrio alaskensis)) of the following compound: CC(C)Nc1cccc(C(=O)NCCCN2CCC(O)CC2)c1
Outgoing: 210

Incoming: Give IC50 (Choline trimethylamine-lyase (Desulfovibrio alaskensis)) of the following compound: C[N+](C)(C)CC=O
Outgoing: 26

Incoming: Give IC50 (Choline trimethylamine-lyase (Desulfovibrio alaskensis)) of the following compound: CN1CCC(NC(=O)NCCNc2ccccn2)CC1
Outgoing: 199

Incoming: Give IC50 (Choline trimethylamine-lyase (Desulfovibrio alaskensis)) of the following compound: Cc1cccc(NC2CCN(C(=O)Nc3cn[nH]c3)CC2)n1
Outgoing: 85
